quantity: melting point

>>> df
                                   compound       quantity    measurement
0  CCN1[C@H](C)CN(c2ccc3cc(-c4cn5cc(C)nc(C)c5n4)oc(=O)c3c2)C[C@@H]1C [Cpd 147]  melting point  253 to 258 °C
1  Cc1nc2ccc(-c3cc4ccc(N5CCN(C(C)C)CC5)cc4c(=O)o3)cc2s1 [Cpd 105]  melting point  222 to 228 °C
2  CCc1nc(C)cn2cc(-c3cc4ccc(N5C[C@@H](C)N[C@@H](C)C5)cc4c(=O)o3)nc12 [Cpd 154]  melting point  239 to 244 °C

Fill in the blank: the reported melting point of CCc1nc(C)cn2cc(-c3cc4ccc(N5C[C@@H](C)N(C)[C@@H](C)C5)cc4c(=O)o3)nc12 [Cpd 158] is ____.
235 to 238 °C

----------
Quick reference for melting point among some molecules

Here's what some known entries look like.
>>> df
                                   molecule       quantity    measurement
0  CCN1CCN(c2ccc3cc(-c4cn5cc(C)ncc5n4)oc(=O)c3c2)C[C@H]1C [Cpd 126]  melting point  238 to 241 °C
1  C[C@@H]1CN(c2ccc3cc(-c4nc5ccccc5s4)oc(=O)c3c2)C[C@H](C)N1 [Cpd 9]  melting point  310 to 312 °C
2  Cc1cn2cc(-c3cc4ccc(N5CCC(N(C)C)CC5)cc4c(=O)o3)nc2c(C)n1 [Cpd 124]  melting point  274 to 276 °C

In the following, a different molecule is considered.
Fill in the blank: the reported melting point of Cc1cn2cc(-c3cc4ccc(N5CCN(C6COC6)[C@@H](C)C5)cc4c(=O)o3)nc2c(C)n1 [Cpd 139] is ____.
251 to 256 °C

----------
Quick reference for melting point among some molecules

Here's what some known entries look like.
>>> df
                                   molecule       quantity    measurement
0  Cc1cn2cc(-c3cc4ccc(C5=CCN(C6CCC6)CC5)cc4c(=O)o3)nc2c(C)n1 [Cpd 94]  melting point  252 to 254 °C
1  CN1CCN(c2ccc3cc(-c4cn5cccc(Cl)c5n4)oc(=O)c3c2)CC1 [Cpd 61]  melting point  240 °C (dec.)

Fill in the blank: the reported melting point of COCCN1CCN(c2ccc3cc(-c4cn5cc(C)nc(C)c5n4)oc(=O)c3c2)C[C@H]1C [Cpd 145] is ____.
205 to 210 °C

Fill in the blank: the reported melting point of CCN1CCN(c2ccc3cc(-c4cc5c(C)nc(C)cn5c4)oc(=O)c3c2)CC1 [Cpd 77] is ____.
202 to 204 °C

Fill in the blank: the reported melting point of Cc1cc2cc(-c3cc4ccc(N5CCNCC5)cc4c(=O)o3)ccc2o1 [Cpd 52] is ____.
206 to 208 °C

----------
quantity: melting point

>>> df
                                   molecule    measurement
0  COc1ccc(-c2cc3ccc(N4CCN[C@@H](C)C4)cc3c(=O)o2)cc1OC [Cpd 30]  155 to 157 °C

Fill in the blank: the reported melting point of COc1cc(-c2cc3ccc(N4CCN[C@@H](C)C4)cc3c(=O)o2)ccc1F [Cpd 47] is ____.
118 to 120 °C

Fill in the blank: the reported melting point of Cc1cn2cc(-c3cc4ccc(N5CCN6CCC[C@H]6C5)cc4c(=O)o3)cc2c(C)n1 [Cpd 80] is ____.
220 to 222 °C

Fill in the blank: the reported melting point of O=c1oc(-c2cn3ccccc3n2)cc2ccc(N3CCNCC3)cc12 [Cpd 26] is ____.
248 °C (dec.)

Fill in the blank: the reported melting point of Cc1nc2ccc(-c3cc4ccc(N5CCNCC5)cc4c(=O)o3)cc2s1 [Cpd 103] is ____.
271 to 276 °C

Fill in the blank: the reported melting point of Cc1nc(Cl)cn2cc(-c3cc4ccc(N5CCN(C)[C@@H](C)C5)cc4c(=O)o3)nc12 [Cpd 112] is ____.
270 to 275 °C

----------
Quick reference for melting point among some compounds

Here's what some known entries look like.
>>> print(df.to_string())
                                 itemsmiles    measurement
0  Cc1cn2cc(-c3cc4ccc(C5=CCN(C6COC6)CC5)cc4c(=O)o3)nc2c(C)n1  253 to 255 °C
1  CN1CCN(c2ccc3cc(-c4cn5ccccc5n4)oc(=O)c3c2)CC1  252 to 254 °C
2  COc1cccc(-c2cc3ccc(N4CCNCC4)cc3c(=O)o2)c1  140 to 142 °C

In the following, a different compound is considered.
Fill in the blank: the reported melting point of `Cc1cn2cc(-c3cc4ccc(N5CCN(C(C)(C)C)CC5)cc4c(=O)o3)nc2c(C)n1` is ____.
300 to 302 °C

----------
Quick reference for melting point among some compounds

Here's what some known entries look like.
>>> print(df.to_string())
                                   compound    measurement
0  Cc1cn2cc(-c3cc4ccc(N5CCNCC5)cc4c(=O)o3)nc2cn1 [Cpd 56]  225 to 227 °C
1  O=c1oc(-c2ccc3c(c2)OC(F)(F)O3)cc2ccc(N3CCNCC3)cc12 [Cpd 6]  220 to 222 °C
2  Cc1cn2cc(-c3cc4ccc(N5CCN(C)[C@@H](C)C5)cc4c(=O)o3)nc2c(C)n1 [Cpd 66]  255 to 256 °C
3  COCCN1CCN(c2ccc3cc(-c4cn5cc(C)nc(C)c5n4)oc(=O)c3c2)CC1 [Cpd 85]  192 to 194 °C
4  COc1c(F)cc(-c2cc3ccc(N4CCN[C@@H](C)C4)cc3c(=O)o2)cc1F [Cpd 49]  170 to 173 °C
5  CCCN1CCN(c2ccc3cc(-c4cn5cc(C)nc(C)c5n4)oc(=O)c3c2)CC1 [Cpd 82]  244 to 246 °C
6  Cc1cn2cc(-c3cc4ccc(N5CCN[C@@H](C)C5)cc4c(=O)o3)nc2cn1 [Cpd 57]  242 to 244 °C
7  Cc1cn2cc(-c3cc4ccc(N5CCN(C)[C@@H](C)C5)cc4c(=O)o3)nc2cn1 [Cpd 121]  250 to 255 °C

In the following, a different compound is considered.
Fill in the blank: the reported melting point of COc1ccc(-c2cc3ccc(N4CCNCC4)cc3c(=O)o2)cc1OC [Cpd 3] is ____.
142 to 143 °C

----------
Quick reference for melting point among some molecules

                                 itemsmiles    measurement
0  Cc1cn2cc(-c3cc4ccc(N5CCN6CCC[C@@H]6C5)cc4c(=O)o3)nc2cn1  255 to 257 °C
1  CCCN1CCN(c2ccc3cc(-c4cn5cc(C)nc(C)c5n4)oc(=O)c3c2)C[C@H]1C  251 to 256 °C
2  Cc1cn2cc(-c3cc4ccc(N5CCN(C6COC6)CC5)cc4c(=O)o3)nc2c(C)n1  294 to 296 °C

Fill in the blank: the reported melting point of `COc1ccc(-c2cc3ccc(N4C[C@@H](C)N[C@@H](C)C4)cc3c(=O)o2)cc1OC` is ____.
309 to 311 °C

----------
quantity: melting point

Here's what some known entries look like.
In [3]: df
Out[3]:
                                   molecule    measurement
0  Cn1cc2cc(-c3cc4ccc(N5CCNCC5)cc4c(=O)o3)ccc2n1 [Cpd 156]  268 to 270 °C
1  Cc1nc(Cl)cn2cc(-c3cc4ccc(N5CCN[C@@H](C)C5)cc4c(=O)o3)nc12 [Cpd 108]  251 to 258 °C

Fill in the blank: the reported melting point of CCCN1CCC(c2ccc3cc(-c4cn5cc(C)nc(C)c5n4)oc(=O)c3c2)CC1 [Cpd 116] is ____.
204 to 206 °C

Fill in the blank: the reported melting point of Cc1cn2cc(-c3cc4ccc(N5CCN(C6CC6)CC5)cc4c(=O)o3)nc2c(C)n1 [Cpd 84] is ____.
260 °C (dec.)

Fill in the blank: the reported melting point of CCN1CCN(c2ccc3cc(-c4cn5cc(C)ncc5n4)oc(=O)c3c2)C[C@@H]1C [Cpd 120] is ____.
255 to 260 °C

Fill in the blank: the reported melting point of C[C@H]1CN(c2ccc3cc(-c4ccc5c(c4)OCCO5)oc(=O)c3c2)CCN1 [Cpd 35] is ____.
175 to 177 °C

Fill in the blank: the reported melting point of Cc1cn2cc(-c3cc4ccc(N5CCN[C@@H](C)C5)cc4c(=O)o3)nc2c(C)n1 [Cpd 63] is ____.
325 to 327 °C

Fill in the blank: the reported melting point of Cc1cn2cc(-c3cc4ccc(N5CCN(C6CCC6)CC5)cc4c(=O)o3)nc2c(C)n1 [Cpd 87] is ____.
279 to 281 °C
